- tested on: T1, HLA-A*0201 molecule expressed on human T2 cells (human)
- T1 construct: surface HLA-A2 detected with anti-HLA-A2-PE (clone REA517); also called HLA-A2
- assay summary: T2 cell HLA-A*0201 binding assay, anti-HLA-A2-PE flow cytometry
experimental readout: mean relative fluorescence intensity at 0.1 µM peptide

// known answers, use as guide
1) AQIGIVAVV [OR51E2-H1]	0 % of HIV pol reference peptide
2) RLQQELMTL [UBE2C-H3]	1.3 % of HIV pol reference peptide
3) VMNPELLLL (also called ENT207_B3) [KIF2C-B12]	9.8 % of HIV pol reference peptide

For the 3 binders below, give their mean relative fluorescence intensity at 0.1 µM peptide values.
1. ALIFGQLLL (also called ENT205_B1; ENT_205-B1) [TOP2A-B2]
2. ALIFGQLLT (also called ENT205-H) [TOP2A-H2]
3. YLILEYAPL [AURKA-H1]

1: 3.4 % of HIV pol reference peptide; 2: 5.1 % of HIV pol reference peptide; 3: 0 % of HIV pol reference peptide
